Value source: patent US8633183B2

# UniProt:P42336: pIC50 values follow
pIC50: −log10 of the molar value.

query_smiles	pIC50
CCc1ncnc(-c2ccc(C(=O)N3CCC(C(F)(F)F)CC3)c(F)c2)c1C#Cc1ccc(N)nc1C	6.19
CCc1ncnc(-c2ccc(C(=O)N3CCN(Cc4ccccc4)CC3)c(C)c2)c1C#Cc1ccc(N)nc1	6.81
CCc1ncnc(-c2cc(F)c(C(=O)N3CCC4(CC3)CN(C)C4)c(Cl)c2)c1C#Cc1ccc(N)nc1	6.06
COc1ccc(-c2ncnc(C)c2C#Cc2ccc(N)nc2)cn1	7.11
CCc1ncnc(-c2ccc(C(=O)N3CC4(CNC4)C3)c(Cl)c2)c1C#Cc1ccc(N)nc1	6.48
CCc1ncnc(-c2ccc(C(=O)N3CCC(N4CCCCC4)CC3)c(C)c2)c1C#Cc1ccc(N)nc1	6.59
CCc1ncnc(-c2ccc(C(=O)N3CC[C@H](N(C)C)C3)c(OC)c2)c1C#Cc1ccc(N)nc1	6.83

###

- target_or_system: PI3Kalpha (Homo sapiens (Human), UniProt P42336)
- Sequence (P42336 whole entry, looked up): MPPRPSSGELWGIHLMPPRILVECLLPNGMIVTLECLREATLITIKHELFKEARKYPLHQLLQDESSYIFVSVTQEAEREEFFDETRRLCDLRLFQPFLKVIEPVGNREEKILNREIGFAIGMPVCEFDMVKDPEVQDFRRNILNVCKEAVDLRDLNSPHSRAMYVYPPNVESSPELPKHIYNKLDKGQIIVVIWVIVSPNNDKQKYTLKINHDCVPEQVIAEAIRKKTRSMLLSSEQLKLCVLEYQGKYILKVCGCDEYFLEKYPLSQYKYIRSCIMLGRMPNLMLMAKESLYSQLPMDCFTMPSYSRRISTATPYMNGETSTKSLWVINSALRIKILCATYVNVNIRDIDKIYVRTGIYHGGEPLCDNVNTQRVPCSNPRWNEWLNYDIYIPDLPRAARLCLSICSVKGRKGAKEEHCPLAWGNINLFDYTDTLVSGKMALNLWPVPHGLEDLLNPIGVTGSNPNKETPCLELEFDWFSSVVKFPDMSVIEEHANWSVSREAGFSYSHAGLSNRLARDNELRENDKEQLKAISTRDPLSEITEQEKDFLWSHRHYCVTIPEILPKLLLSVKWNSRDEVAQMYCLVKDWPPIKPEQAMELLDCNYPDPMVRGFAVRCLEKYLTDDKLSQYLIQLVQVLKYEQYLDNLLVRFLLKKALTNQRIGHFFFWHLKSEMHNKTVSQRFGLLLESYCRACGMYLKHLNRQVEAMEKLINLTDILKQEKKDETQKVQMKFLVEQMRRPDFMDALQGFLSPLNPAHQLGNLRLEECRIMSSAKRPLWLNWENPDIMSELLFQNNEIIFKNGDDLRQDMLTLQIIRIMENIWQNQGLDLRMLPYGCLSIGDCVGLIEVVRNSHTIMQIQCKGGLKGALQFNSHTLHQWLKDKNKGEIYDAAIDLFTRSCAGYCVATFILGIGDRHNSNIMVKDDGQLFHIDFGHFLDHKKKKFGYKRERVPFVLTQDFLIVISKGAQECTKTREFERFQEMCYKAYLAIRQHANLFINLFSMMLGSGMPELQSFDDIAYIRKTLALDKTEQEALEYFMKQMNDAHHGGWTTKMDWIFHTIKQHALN
pIC50: −log10 of the molar value.
The entries below are paired with their reported pIC50.

compound	pIC50
CCc1ncnc(-c2ccc(C(=O)N3CCC4(CC3)CC(N)C4)c(F)c2)c1C#Cc1ccc(N)nc1 [Example E-320]	5.89
CCc1ncnc(-c2ccc(C(=O)N3CC[C@@H](N(C)C)C3)c(F)c2)c1C#Cc1ccc(NC)nc1 [Example E-180]	6.45
CCc1ncnc(-c2cc(F)c(C(=O)N3CCN(C(C)CO)CC3)c(F)c2)c1C#Cc1ccc(N)nc1 (centres unmarked) [Example E-299]	6.80
CCc1ncnc(-c2ccc(C(=O)N3CCC(N(C)C)CC3)c(OC)c2)c1C#Cc1ccc(N)nc1 [Example E-59]	6.53
CCc1ncnc(-c2ccc(C(=O)N3CCCC(N(C)C)C3)c(OC)c2)c1C#Cc1ccc(N)nc1 (centres unmarked) [Example E-51]	6.69
CCc1ncnc(-c2ccc(C(=O)N3CCN(CC)CC3)c(OC(F)(F)F)c2)c1C#Cc1ccc(N)nc1 [Example E-226]	6.71
CCc1ncnc(-c2ccc(C(=O)N(C)CCO)c(Cl)c2)c1C#Cc1ccc(N)nc1 [Example D-34]	7.44
CCc1ncnc(-c2ccc(C(=O)N3CCC4(CC3)CNCCO4)c(F)c2)c1C#Cc1ccc(N)nc1 [Example E-322]	6.41
CCc1ncnc(-c2ccc(F)c(C(=O)N(C)C)c2)c1C#Cc1ccc(N)nc1 [Example C-15]	6.72
CCc1ncnc(-c2ccc(C(=O)N3CCN(CC)CC3)c(Cl)c2)c1C#Cc1ccc(N)nc1 [Example D-45]	6.73
CCc1ncnc(-c2cc(F)c(C(=O)N3CCN(CCOC)CC3)c(F)c2)c1C#Cc1ccc(N)nc1 [Example E-5]	7.10

###

pIC50: −log10 of the molar value.
// PI3Kalpha (Homo sapiens (Human), UniProt P42336) pIC50 records
readout_label: pIC50

compound	measured_number
CCc1ncnc(-c2cc(F)c(C(=O)N3CCN(CC)CC3)c(F)c2)c1C#Cc1ccc(NC)nc1	6.33
CCc1ncnc(-c2cc(F)c(C(=O)N3CCN(C4CCOCC4)CC3)c(F)c2)c1C#Cc1ccc(NC)nc1	6.33
CCc1ncnc(-c2ccc(C(=O)N(C)O)c(C)c2)c1C#Cc1ccc(N)nc1	7.43
CCc1ncnc(-c2ccc(C(=O)N3CCN4CCCCC4C3)c(OC)c2)c1C#Cc1ccc(N)nc1 (stereo not shown)	6.55
Cc1ncnc(-c2ccc(C(=O)N(C)C)cc2)c1C#Cc1ccc(N)nc1	7.07
CCc1ncnc(-c2ccc(C(=O)N3CC4(CNC4)C3)c(F)c2)c1C#Cc1ccc(N)nc1	6.60
CCc1ncnc(-c2ccc(C(=O)N3CCNCC3)c(F)c2)c1C#Cc1ccc(N)nc1	7.24
CCc1ncnc(-c2ccc(C(=O)NCC3(C)COC3)c(Cl)c2)c1C#Cc1ccc(N)nc1 [Example E-41]	7.18
CCc1ncnc(-c2cc(F)c(C(=O)N3CCC(CN(C)C)CC3)c(Cl)c2)c1C#Cc1ccc(N)nc1	6.35
CCc1ncnc(-c2ccc(C(=O)N3CCN(S(=O)(=O)CC)CC3)c(OC)c2)c1C#Cc1ccc(N)nc1	7.44
CCc1ncnc(-c2ccc(C(=O)N3CCN(S(=O)(=O)CC)CC3)c(F)c2)c1C#Cc1ccc(N)nc1C	7.04
CCc1ncnc(-c2ccc(C(=O)N3CCN(CC(C)(C)O)CC3)c(F)c2)c1C#Cc1ccc(N)nc1	6.76
CCc1ncnc(-c2ccc(C(=O)N3CCN(C(C)(C)C)CC3)c(Cl)c2)c1C#Cc1ccc(N)nc1	6.36
Cc1ncnc(-c2ccc(C(=O)N3CCCO3)c(F)c2)c1C#Cc1ccc(N)nc1	7.32
CCc1ncnc(-c2ccc(C(=O)N3CCCC(O)C3)c(F)c2)c1C#Cc1ccc(N)nc1 (stereo not shown)	7.19
CCc1ncnc(-c2ccc(C(=O)N(C)CC3CCN(C)CC3)c(F)c2)c1C#Cc1ccc(N)nc1	6.47
